Reference source: patent US10058550B2

- Tested Target: human APJ receptor (Homo sapiens (Human), UniProt P35414)
- Sequence (P35414 whole entry): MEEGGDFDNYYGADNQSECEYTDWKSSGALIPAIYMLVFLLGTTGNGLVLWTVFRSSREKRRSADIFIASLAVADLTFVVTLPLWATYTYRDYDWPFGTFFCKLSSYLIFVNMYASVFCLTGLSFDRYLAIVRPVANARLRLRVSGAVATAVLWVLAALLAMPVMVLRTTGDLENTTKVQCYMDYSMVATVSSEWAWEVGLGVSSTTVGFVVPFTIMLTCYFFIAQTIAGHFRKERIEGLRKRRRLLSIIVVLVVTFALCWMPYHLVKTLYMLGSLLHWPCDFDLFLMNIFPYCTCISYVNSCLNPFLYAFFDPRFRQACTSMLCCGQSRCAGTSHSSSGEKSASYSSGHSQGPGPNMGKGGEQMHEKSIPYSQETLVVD
- Test Summary: biochemical
- Experimental Conditions: read-out: Activity hAPJ SPA EC50 IP
Parameter: pEC50
Give bare numbers, as −log10 of the molar value.

Give measured pEC50 for every item shown.
1. COc1cccc(OC)c1-n1c(NS(=O)(=O)[C@H](C)[C@H](OC(C)C)c2cnc(C)cn2)nnc1-c1cncc(C)c1 (single isomer, unassigned) [Example 746.0]
2. COc1cccc(-c2nnc(NS(=O)(=O)[C@@H](C)[C@H](O)c3ccc(F)cc3F)n2-c2c(OC)cccc2OC)n1 (single isomer, unassigned) [Example 280.0]
3. CCO[C@H](c1ncc(F)cn1)[C@H](C)S(=O)(=O)Nc1nnc(-c2cccnc2)n1-c1c(OC)cccc1OC

1. 7.10
2. 9.57
3. 9.15

Give measured pEC50 for every item shown.
1. COc1ccnc(OC)c1-n1c(NS(=O)(=O)[C@@H](C)[C@H](OC)c2ccc(Cl)cn2)nnc1-c1cccnc1 (single isomer, unassigned)
2. COc1cccc(-c2nnc(NS(=O)(=O)C[C@H](O)c3ccc(C#N)cn3)n2-c2c(OC)cccc2OC)n1 (single isomer, unassigned)
3. COc1cccc(OC)c1-n1c(NS(=O)(=O)[C@@H](C)[C@H](OC)C2CC(C)(C)C2)nnc1-c1cncc(C)c1 (single isomer, unassigned) [Example 724.0]
4. COc1cccc(OC)c1-n1c(NS(=O)(=O)[C@H](C)[C@@H](O)c2cnc(C)cn2)nnc1-c1cccnc1
5. COc1cccc(-c2nnc(NS(=O)(=O)C[C@H](OC)c3ccc(F)cn3)n2-c2c(OC)cccc2OC)n1 (single isomer, unassigned) [Example 329.0]
6. COc1cccc(-c2nnc(NS(=O)(=O)CCc3ccc(F)cc3C#N)n2-c2c(OC)cccc2OC)n1
7. COc1cccc(-c2nnc(NS(=O)(=O)[C@@H]3CCCN(c4ncc(Cl)cn4)C3)n2-c2c(OC)ncnc2OC)n1 [Example 831.0]
8. COc1cccc(OC)c1-n1c(NS(=O)(=O)[C@@H](C)[C@H](C)c2ncc(F)cn2)nnc1-c1cccc(C)n1 (mixture of isomers) [Example 452.0]

9.05
9.25
6.66
8.77
9.64
9.24
9.05
9.00

# input compound: CCO[C@H](c1ncc(Cl)cn1)[C@H](C)S(=O)(=O)Nc1nnc(-c2cncc(C)c2)n1-c1c(OC)cccc1OC [Example 429.0] ; wanted: its pEC50
9.57

----------
- Tested Target: human APJ receptor (Homo sapiens (Human))
- Test Summary: biochemical
- Experimental Conditions: read-out: Activity hAPJ SPA EC50 IP
Parameter: log10 of EC50 (log10 of the value in nM)
A value of 2 here means EC50 of 100 in nM, since values are log10.

Take a look at these entries with their results.
| Molecule | Result Number |
| --- | --- |
| COc1cccc(OC)c1-n1c(NS(=O)(=O)CCc2ccc(Cl)cc2)nnc1-c1cccnc1 [Example 369.0] | 1.20 |
| COc1cccc(-c2nnc(NS(=O)(=O)[C@H](C)Cc3ncc(F)cn3)n2-c2c(C)noc2C)n1 (mixture of isomers) [Example 32.0] | 2.15 |
| COc1cccc(-c2nnc(NS(=O)(=O)[C@@H]3CCCN(c4ncc(Cl)cn4)C3)n2-c2c(OC)ncnc2OC)n1 (single isomer, unassigned) [Example 830.0] | 1.15 |
| COc1cccc(-c2nnc(NS(=O)(=O)[C@@H](C)[C@H](OC)c3ncc(C)cn3)n2-c2cccc(Cl)c2C)n1 (atropisomer, axis not shown; (P)) [Example 55.0] | 1.23 |
| COc1cccc(OC)c1-n1c(NS(=O)(=O)[C@@H](C)[C@H](C)c2ncc(C)cn2)nnc1-c1ccnc(C)c1 [Example 85.0] | 0.72 |

Next molecule, log10 of EC50 to be filled in.
# input molecule: COc1cccc(OC)c1-n1c(NS(=O)(=O)[C@@H]2C[C@@H](OC)CN(c3ncc(F)cn3)C2)nnc1-c1cccnc1 (stereo in doubt) [Example 816.0] ; wanted: its log10 of EC50
1.26
